system: SF-295 CNS; assay: NCI tumour cell line growth inhibition, 48 h
List of TGI values.

{"MOLECULE": "O=[N+]([O-])c1cnc(Sc2ccncn2)s1", "SCALE UNIT": "µM", "REL": "=", "TGI": 41}
{"MOLECULE": "CCOC(=O)COc1cccc2c1C(=O)CCO2", "SCALE UNIT": "µM", "REL": ">", "TGI": 100}
{"MOLECULE": "Cn1c2ccc([N+](=O)[O-])cc2c(=O)n1Cc1ccccc1F", "SCALE UNIT": "µM", "REL": ">", "TGI": 100}
{"MOLECULE": "COc1cc2cnc3c4cc(OC(C)C)c(OC)cc4ccc3c2cc1OC", "SCALE UNIT": "µM", "REL": ">", "TGI": 100}
{"MOLECULE": "Nc1cc2nc3ccccc3sc-2cc1=O", "SCALE UNIT": "µM", "REL": "=", "TGI": 7.35}
{"MOLECULE": "S=C(N1CCN(c2ccc(Cl)c(Cl)c2)CC1)N1CCN(c2ccc(Cl)c(Cl)c2)CC1", "SCALE UNIT": "µM", "REL": "=", "TGI": 22.2}
{"MOLECULE": "COc1cccc2c1C(=O)C1=C(C2=O)C(O)CC(C)(C)O1 (centres undefined)", "SCALE UNIT": "µM", "REL": ">", "TGI": 100}
{"MOLECULE": "O=[N+]([O-])c1cccc2nc3ccccc3c(NCCCCNc3c4ccccc4nc4cccc([N+](=O)[O-])c34)c12", "SCALE UNIT": "µM", "REL": "=", "TGI": 1.02}
{"MOLECULE": "O=C1NC(N/N=C/c2ccccc2)=N/C1=C\\c1ccco1", "SCALE UNIT": "µM", "REL": ">", "TGI": 100}
{"MOLECULE": "CCCCS(=O)(=O)CCC(N)P(=O)(O)O (centres undefined)", "SCALE UNIT": "µM", "REL": ">", "TGI": 100}
{"MOLECULE": "O=C(NC(=S)Nc1ccc(Br)cc1)c1ccc2c(c1)Sc1ccccc1S2", "SCALE UNIT": "µM", "REL": "=", "TGI": 38.6}
{"MOLECULE": "C1=CC2C=CC(C=C1)P2c1ccccc1 (centres undefined)", "SCALE UNIT": "µM", "REL": ">", "TGI": 100}
{"MOLECULE": "CC(=O)c1cccc(Nc2nc3ccccc3c3occc23)c1", "SCALE UNIT": "µM", "REL": "=", "TGI": 48.4}
{"MOLECULE": "COc1ccc(-c2cc(-c3ccc(Nc4nc(Nc5ccccc5)nc(Nc5ccc(Cl)cc5)n4)cc3)nc(N)c2C#N)cc1", "SCALE UNIT": "µM", "REL": "=", "TGI": 7.28}
{"MOLECULE": "CN(C)c1ccc(C2CC(c3ccc4ccccc4c3O)=NN2)cc1 (centres undefined)", "SCALE UNIT": "µM", "REL": ">", "TGI": 100}
{"MOLECULE": "CNC(=O)c1ccccc1Nc1nc(Nc2ccc(N3CCOCC3)cc2OC)ncc1Cl", "SCALE UNIT": "µM", "REL": "=", "TGI": 11.1}
{"MOLECULE": "COc1cccc(NC(=O)CC(=O)n2nc(C)c(N=Nc3ccccc3)c2C)c1", "SCALE UNIT": "µM", "REL": ">", "TGI": 100}
{"MOLECULE": "O=C(Nc1ccc(F)cc1F)c1cc(I)ccc1O", "SCALE UNIT": "µM", "REL": "=", "TGI": 3.94}
{"MOLECULE": "CC1=C(C(=O)Nc2ccccc2C)C(c2ccco2)C(C(=O)Nc2ccccc2C)=C(C)N1C", "SCALE UNIT": "µM", "REL": ">", "TGI": 100}
{"MOLECULE": "COc1cc(/C=C/c2cc(/C=C/c3ccc(O)c(OC)c3)n(C(=O)Nc3ccc(F)cc3)n2)ccc1O", "SCALE UNIT": "µM", "REL": "=", "TGI": 29.7}
{"MOLECULE": "CN1CCc2cc3c(c4c2C1C(O)c1ccccc1-4)OCO3 (centres undefined)", "SCALE UNIT": "µM", "REL": "=", "TGI": 21.1}
{"MOLECULE": "CO[C@]1(c2ccc([N+](=O)[O-])cc2)Oc2ccccc2C(=O)[C@@]1(Nc1ccc(C=O)cc1)OC", "SCALE UNIT": "µM", "REL": ">", "TGI": 10}
{"MOLECULE": "C/C(CCn1[nH]c(=O)ccc1=O)=N\\O", "SCALE UNIT": "µM", "REL": ">", "TGI": 100}
{"MOLECULE": "O=[S@@]1Nc2ccc(Br)cc2S1", "SCALE UNIT": "µM", "REL": ">", "TGI": 100}
